Subject Of Test: PTGER4 (EP4) (Homo sapiens (Human), UniProt P35408)
Sequence (P35408 whole entry): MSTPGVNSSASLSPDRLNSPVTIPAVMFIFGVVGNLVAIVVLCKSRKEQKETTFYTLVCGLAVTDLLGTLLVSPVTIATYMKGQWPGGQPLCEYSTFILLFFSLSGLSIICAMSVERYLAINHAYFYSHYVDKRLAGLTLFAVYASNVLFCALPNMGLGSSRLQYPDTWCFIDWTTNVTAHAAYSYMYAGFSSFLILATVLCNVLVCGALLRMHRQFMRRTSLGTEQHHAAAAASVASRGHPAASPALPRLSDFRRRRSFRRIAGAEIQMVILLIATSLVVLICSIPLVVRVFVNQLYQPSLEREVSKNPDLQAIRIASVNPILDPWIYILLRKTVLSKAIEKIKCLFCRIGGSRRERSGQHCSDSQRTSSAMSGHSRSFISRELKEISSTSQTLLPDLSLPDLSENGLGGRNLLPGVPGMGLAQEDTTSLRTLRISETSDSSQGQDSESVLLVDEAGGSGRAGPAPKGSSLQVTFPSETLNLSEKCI
I'd appreciate it if you could supply log10 IC50 values for the items below.
Values reflect log10 of reported IC50 (nM).

Name the reported log10 IC50 value associated with the compound COc1cc2ccccc2c(C)c1CCNc1cc(-c2ccc(C(=O)O)c(SC)c2)ncn1 [Ex 59]
1.97

Name the reported log10 IC50 value associated with the compound CCOc1cc(-c2cc(NCCc3cc4ccsc4cc3C#N)ncn2)ccc1C(=O)O [Ex 128]
2.28

Name the reported log10 IC50 value associated with the compound COc1cc2ccccc2c(F)c1CCNc1cc(-c2ccc(CC(=O)O)c(SC)c2)ncn1 [Ex 115]
1.72

Name the reported log10 IC50 value associated with the compound N#Cc1cc2c(cc1CCNc1cc(-c3ccc(C(=O)O)c(OC4CCC4)c3)ncn1)OCCO2 [Ex 113]
2.25

Name the reported log10 IC50 value associated with the compound CCOc1cc(-c2cc(NCCc3cc4c(cc3C#N)OCCO4)ncn2)ccc1C(=O)O [Ex 203]
2.55

Name the reported log10 IC50 value associated with the compound CCOc1cc(-c2cc(NCCc3ccc4ccccc4c3C)ncn2)sc1CC(=O)O [Ex 148]
1.66

Name the reported log10 IC50 value associated with the compound CCOc1cc(-c2cc(NCCc3c(F)cc4ccccc4c3F)ncn2)sc1C(=O)O [Ex 335]
1.08

Name the reported log10 IC50 value associated with the compound C#Cc1c(CCNc2cc(-c3ccc(OCC(=O)O)c(OCC)c3)ncn2)ccc2ccccc12 [Ex 140]
1.98

Name the reported log10 IC50 value associated with the compound COc1cc2sccc2cc1CCNc1cc(-c2ccc(CC(=O)O)c(SC)c2)ncn1 [Ex 224]
2.41

Name the reported log10 IC50 value associated with the compound CCOc1cc(-c2cc(NCCc3c(OC)cc4ccccc4c3F)ncn2)ccc1CC(=O)O [Ex 37]
1.20

Name the reported log10 IC50 value associated with the compound CCOc1cc(-c2cc(NCCc3ccc4scnc4c3)ncn2)sc1C(=O)O [Ex 88]
1.77

Name the reported log10 IC50 value associated with the compound CCOc1cc(-c2cc(NCCc3cc4cccnc4c(C)c3Cl)ncn2)sc1C(=O)O [Ex 87]
1.93

Name the reported log10 IC50 value associated with the compound CCOc1cc(-c2cc(NCCc3ccc4sccc4c3C)ncn2)ccc1C(=O)O [Ex 296]
3.20

Name the reported log10 IC50 value associated with the compound COc1cc2c(cc1CCNc1cc(-c3ccc(C(=O)O)c(SC)c3)ncn1)CCCN2 [Ex 329]
2.90

Name the reported log10 IC50 value associated with the compound O=C(O)c1ccc(-c2cc(NCCc3c(F)cc4ccccc4c3F)ncn2)cc1OC1CCC1 [Ex 333]
2.11

Name the reported log10 IC50 value associated with the compound O=C(O)c1ccc(-c2cc(NCCc3cc4ccccc4cc3OC(F)F)ncn2)cc1OC1CCC1 [Ex 180]
1.74

Name the reported log10 IC50 value associated with the compound CSc1cc(-c2cc(NCCc3c(F)cc4ccccc4c3F)ncn2)ccc1CC(=O)O [Ex 270]
2.61

Name the reported log10 IC50 value associated with the compound CCOc1cc2ccccc2cc1CCNc1cc(-c2ccc(OCC(=O)O)c(OCC)c2)ncn1 [Ex 160]
1.38

Name the reported log10 IC50 value associated with the compound COc1cc2c(cc1CCNc1cc(-c3ccc(CC(=O)O)c(SC)c3)ncn1)OCCO2 [Ex 197]
2.48

Name the reported log10 IC50 value associated with the compound CCOc1cc(-c2cc(NCCc3ccc4sccc4c3)ncn2)ccc1OCC(=O)O [Ex 121]
1.62

Name the reported log10 IC50 value associated with the compound CCOc1cc(-c2cc(NCCc3c(F)cc4ncccc4c3F)ncn2)ccc1OCC(=O)O [Ex 191]
2.45

Name the reported log10 IC50 value associated with the compound CCOc1cc(-c2cc(NCCc3ccc4ccsc4c3)ncn2)ccc1OCC(=O)O [Ex 144]
1.96

Name the reported log10 IC50 value associated with the compound COc1cc2ccccc2c(F)c1CCNc1cc(-c2ccc(C(=O)O)c(OC3CCC3)c2)ncn1 [Ex 25]
1.20

Name the reported log10 IC50 value associated with the compound CSc1cc(-c2cc(NCCc3ccc4cccc(F)c4c3)ncn2)ccc1C(=O)O [Ex 243]
2.17

Name the reported log10 IC50 value associated with the compound CCOc1cc(-c2cc(NCCc3ccc4ncsc4c3)ncn2)sc1C(=O)O [Ex 91]
1.60

Name the reported log10 IC50 value associated with the compound C=Cc1c(CCNc2cc(-c3cc(OCC)c(C(=O)O)s3)ncn2)ccc2ccccc12 [Ex 75]
1.93

Name the reported log10 IC50 value associated with the compound CCOc1cc(-c2cc(NCCc3ccc4ccccc4c3C)ncn2)ccc1OCCC(=O)O [Ex 134]
1.80

Name the reported log10 IC50 value associated with the compound CCOc1cc(-c2cc(NCCc3ccc4sccc4c3C)ncn2)ccc1CC(=O)O [Ex 289]
2.98

Name the reported log10 IC50 value associated with the compound CSc1cc(-c2cc(NCCc3ccc4sccc4c3C)ncn2)ccc1C(=O)O [Ex 204]
2.80

Name the reported log10 IC50 value associated with the compound COc1cc2ccccc2c(C)c1CCNc1cc(-c2ccc(CC(=O)O)c(SC)c2)ncn1 [Ex 163]
1.99

Name the reported log10 IC50 value associated with the compound CCOc1cc(-c2cc(NCCc3cc4c(Cl)ccnc4cc3C)ncn2)sc1C(=O)O [Ex 178]
2.21

Name the reported log10 IC50 value associated with the compound CCOc1cc(-c2cc(NCCc3cc4ccccc4cc3Cl)ncn2)ccc1C(=O)O [Ex 279]
2.87

Name the reported log10 IC50 value associated with the compound Cc1c(CCNc2cc(-c3ccc(C(=O)O)c(OC4CCC4)c3)ncn2)ccc2sccc12 [Ex 268]
2.84

Name the reported log10 IC50 value associated with the compound CCOc1cc(-c2cc(NCCc3cc4c(cc3Cl)OC(F)(F)O4)ncn2)sc1C(=O)O [Ex 165]
2.27

Name the reported log10 IC50 value associated with the compound CCOc1cc(-c2cc(NCCc3c(C#N)cc4ccccc4c3C)ncn2)sc1C(=O)O [Ex 2]
0.48

Name the reported log10 IC50 value associated with the compound CCOc1cc(-c2cc(NCCc3cc4c(cc3C#N)OCCO4)ncn2)sc1C(=O)O [Ex 6]
0.78
